Target: human Src enzyme (Homo sapiens)
Construct: purchased Carna Biosciences, Inc. 08-173
Sequence (P12931 whole entry): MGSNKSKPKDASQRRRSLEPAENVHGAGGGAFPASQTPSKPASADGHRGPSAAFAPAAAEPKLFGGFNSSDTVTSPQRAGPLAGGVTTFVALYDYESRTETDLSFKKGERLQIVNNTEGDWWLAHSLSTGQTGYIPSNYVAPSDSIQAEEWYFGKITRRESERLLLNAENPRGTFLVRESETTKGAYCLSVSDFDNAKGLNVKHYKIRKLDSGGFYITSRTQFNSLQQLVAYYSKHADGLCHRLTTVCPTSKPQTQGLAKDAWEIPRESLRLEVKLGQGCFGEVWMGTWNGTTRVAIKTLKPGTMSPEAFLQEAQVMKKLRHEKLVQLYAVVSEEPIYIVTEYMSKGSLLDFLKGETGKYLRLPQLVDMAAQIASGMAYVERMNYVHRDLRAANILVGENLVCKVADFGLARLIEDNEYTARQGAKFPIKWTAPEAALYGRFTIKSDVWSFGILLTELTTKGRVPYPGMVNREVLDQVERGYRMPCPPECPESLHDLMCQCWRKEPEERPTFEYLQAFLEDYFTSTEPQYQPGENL
Experiment: Src enzyme inhibitory activity (time-resolved fluorometry, biotinylated peptide phosphorylation)
Type: biochemical
Conditions: biotinylated peptide phosphorylation, read-out: SRC_IC50
observed-property: log10(IC50) (log10 of the value in µM)

smiles_record=Cc1cc(Oc2ccccc2F)ccc1-n1ncc(C(=O)c2cc3cc(OC(F)F)c(N4CCC(N5CCOCC5)CC4)cc3[nH]2)c1N observed_property=log10(IC50) reported_result=-1.32
smiles_record=Cc1cc(-n2ncc(C(=O)c3cc4cc(F)c(C5CCN(C(C)C)CC5)cc4[nH]3)c2N)ccc1Oc1ccccc1F observed_property=log10(IC50) reported_result=-0.29
smiles_record=Cc1cc(Oc2ccccc2F)ccc1-n1ncc(C(=O)c2cc3cc(OC(F)F)c(N4CC5(CCCC5)NS4(=O)=O)cc3[nH]2)c1N observed_property=log10(IC50) reported_result=-0.72
smiles_record=Cc1cc(Oc2ccccc2F)ccc1-n1ncc(C(=O)c2cc3cc(OCC(F)F)c(NS(=O)(=O)CCC(F)F)cc3[nH]2)c1N observed_property=log10(IC50) reported_result=-1.62
smiles_record=Cc1cc(Oc2cccc(Cl)c2)ccc1-n1ncc(C(=O)c2cc3cc(F)c(C4CCN(C(C)C)CC4)cc3[nH]2)c1N observed_property=log10(IC50) reported_result=-1.31
smiles_record=Cc1cc(Oc2cccc(F)c2F)ncc1-n1ncc(C(=O)c2cc3cc(F)c(NS(C)(=O)=O)cc3[nH]2)c1N observed_property=log10(IC50) reported_result=-1.04

====

Molecular target: human Lck enzyme (Homo sapiens, UniProt P06239)
Construct: purchased Carna Biosciences, Inc. 08-170
Sequence (P06239 whole entry): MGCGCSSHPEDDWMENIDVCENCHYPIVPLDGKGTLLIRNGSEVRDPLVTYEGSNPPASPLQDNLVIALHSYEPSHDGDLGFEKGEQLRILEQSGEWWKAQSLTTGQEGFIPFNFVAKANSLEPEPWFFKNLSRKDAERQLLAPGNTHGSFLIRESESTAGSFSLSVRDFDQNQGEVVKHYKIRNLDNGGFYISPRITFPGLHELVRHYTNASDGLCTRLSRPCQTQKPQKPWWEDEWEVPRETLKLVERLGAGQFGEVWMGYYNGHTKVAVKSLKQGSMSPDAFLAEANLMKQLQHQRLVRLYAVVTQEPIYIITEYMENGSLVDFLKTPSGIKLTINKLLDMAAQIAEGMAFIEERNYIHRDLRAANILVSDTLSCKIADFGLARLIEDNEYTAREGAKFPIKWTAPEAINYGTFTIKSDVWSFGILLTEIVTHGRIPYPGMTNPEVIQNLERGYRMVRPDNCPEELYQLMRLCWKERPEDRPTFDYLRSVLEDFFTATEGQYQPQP
Experiment: Lck enzyme inhibitory activity (time-resolved fluorometry, biotinylated peptide phosphorylation)
Assay type: biochemical
Settings: read-out: LCK_IC50
Protocol: 3. Lck Enzyme Inhibitory Activity Lck inhibitory activity was determined based on activity of inhibiting phosphorylation reaction of a biotinylated peptide (EGPWLEEEEEAYGWMDF) using a human Lck enzyme (manufactured by Carna Biosciences, Inc., cat 08-170). The phosphorylated biotinylated peptide was detected by time-resolved fluorometry using an anti-phosphorylated tyrosine antibody conjugated to europium cryptate, and streptavidin conjugated to XL665, an allophycocyanin derivative. […]
IC50 values by entry
observed-property: IC50

smiles_record=Cc1cc(Oc2c(F)cccc2F)ncc1-n1ncc(C(=O)c2cc3cc(OC(F)F)c(NS(=O)(=O)C4CCOCC4)cc3[nH]2)c1N reported_result="110 nM"
smiles_record=Cc1cc(Oc2cccc(F)c2F)nc(C)c1-n1ncc(C(=O)c2cc3cc(F)c(NS(C)(=O)=O)cc3[nH]2)c1N reported_result="97 nM"
smiles_record=Cc1cc(Oc2ccccc2F)ccc1-n1ncc(C(=O)c2cc3cc(OCC(F)F)c(N4C(=O)[C@@H]5C[C@H](NC(=O)OCc6ccccc6)CN5C4=O)cc3[nH]2)c1N reported_result="15 nM"
smiles_record=Cc1cc(-n2ncc(C(=O)c3cc4cc(N5CCOCC5)c(N5CCOC5=O)cc4[nH]3)c2N)ccc1Oc1ccccc1F reported_result="33 nM"
smiles_record=Cc1cc(Oc2c(F)cccc2F)ncc1-n1ncc(C(=O)c2cc3cc(OCC(F)F)c(-c4cccs4)cc3[nH]2)c1N reported_result="95 nM"
smiles_record=Cc1cc(Oc2ccccc2F)ccc1-n1ncc(C(=O)c2cc3cc(N4CCOCC4)c(N4C(=O)NC(C)(C)C4=O)cc3[nH]2)c1N reported_result="1.3 nM"

These measurements were taken from patent US10479780B2.
